Target: T1, Recombinant soluble NRP1 (sNRP1) protein containing His6 and c-Myc domain tags (human, UniProt O14786-2 22-644, limits assumed)
T1 construct: Expressed in NIH-3T3 cells, purified from conditioned medium by ammonium sulfate precipitation and Ni-NTA; also called recombinant human sNRP1; recombinant NRP1; not shown: His6 and c-Myc tags
T1 sequence (looked up): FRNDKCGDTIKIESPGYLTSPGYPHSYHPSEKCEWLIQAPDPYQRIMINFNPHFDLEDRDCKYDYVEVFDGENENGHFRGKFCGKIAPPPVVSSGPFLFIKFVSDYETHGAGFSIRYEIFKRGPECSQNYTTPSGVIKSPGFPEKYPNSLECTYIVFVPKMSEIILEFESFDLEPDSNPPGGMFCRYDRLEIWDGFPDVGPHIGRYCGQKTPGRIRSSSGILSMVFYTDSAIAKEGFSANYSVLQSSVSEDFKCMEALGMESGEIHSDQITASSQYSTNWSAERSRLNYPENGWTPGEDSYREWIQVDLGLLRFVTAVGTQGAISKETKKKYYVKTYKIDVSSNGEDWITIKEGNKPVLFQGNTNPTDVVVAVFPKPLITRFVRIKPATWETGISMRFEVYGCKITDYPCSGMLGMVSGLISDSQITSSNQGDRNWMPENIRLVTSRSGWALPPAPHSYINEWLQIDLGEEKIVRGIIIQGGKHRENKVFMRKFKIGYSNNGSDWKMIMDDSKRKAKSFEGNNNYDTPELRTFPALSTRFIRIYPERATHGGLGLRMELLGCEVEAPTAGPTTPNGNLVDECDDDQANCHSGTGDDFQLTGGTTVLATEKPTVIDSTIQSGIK
Assay: SPR (Biacore), NRP1 immobilized on CM5 chip, peptide injected, 25 C
Bridges are numbered along the chain shown (N, C = ends). Where no end group is shown, it is not given here.
MEASUREMENT_LABEL: pKd
Quick note: pKd values are minus log10 of concentrations in mol/L.

binder="CRSRRIRLC (disulfide 1-9 (inferred), Chemically synthesized cyclic 9-mer (Digitalgene, Taiwan); Its core matches phage clone 4-5) [cyclic peptide DG2 (CRSRRIRLC)]" reported_value=5.27

Now for another entry.
Lookup result for CRRPRMLTC (disulfide 1-9 (inferred), Chemically synthesized cyclic 9-mer (Digitalgene, Taiwan); Its core matches phage clone 4-1) [cyclic peptide DG1 (CRRPRMLTC)] ; measured pKd: 5.85
